Assign pIC50 to each entry below.
Molecular target: Kras and SOS1 (biotin-tagged human Kras loaded with GDP, His-tagged human SOS1) (Homo sapiens, UniProt P01116, G12D)
Construct: made in house; host or cells: E. coli (stated for Kras only)
Sequence (P01116 1-188 isoform P01116-2 G12D): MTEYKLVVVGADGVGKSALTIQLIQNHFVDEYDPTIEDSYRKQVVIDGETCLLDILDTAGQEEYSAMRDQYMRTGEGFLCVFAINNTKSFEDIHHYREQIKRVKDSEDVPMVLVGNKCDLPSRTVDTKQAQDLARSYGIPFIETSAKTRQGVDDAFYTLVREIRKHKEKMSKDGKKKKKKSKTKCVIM
Assay: Protein-protein interaction inhibition between Kras and SOS1 (KrasGl2D-SOS PPI) using AlphaScreen
Assay type: binding
Settings: AlphaScreen; biotin-tagged human Kras loaded with GDP, His-tagged human SOS1; read-out: KRAS G12D-SOS PPI IC50
Starred links: 1 amine or outer side, 2 acyl side, 3 side chain; linkers in the order of their positions; H or OH if unused. Positions of bridges follow the written chain, without caps; N, C: chain ends. Non-standard residues stand in square brackets, D forms with d. Residues, ends and D or L forms follow the SMILES beside them. *: point of attachment. hPhe(3-Cl-4-CF3) = N[C@@H](CCc1ccc(C(F)(F)F)c(Cl)c1)C(=O)O; NMePhe(4-CF3) = CN[C@@H](Cc1ccc(C(F)(F)F)cc1)C(=O)O; NMePhe(4-Me) = CN[C@@H](Cc1ccc(C)cc1)C(=O)O; NMePhe(2-Cl) = CN[C@@H](Cc1ccccc1Cl)C(=O)O; NMedβ3hAla = C[C@H](CC(=O)[*:2])N(C)[*:1]; NMeY = CN[C@@H](Cc1ccc(O)cc1)C(=O)O; NMeCha = CN[C@@H](CC1CCCCC1)C(=O)O; X2 = C=CC[C@](C)(N[*:1])C(=O)[*:2]; NMehLeu = CN[C@@H](CCC(C)C)C(=O)O; NMeI = CC[C@H](C)[C@H](NC)C(=O)O; NMeD = CN[C@@H](CC(=O)O)C(=O)O; NMeL = CN[C@@H](CC(C)C)C(=O)O; NPrAla = CCCN[C@@H](C)C(=O)O; NMeV = CN[C@H](C(=O)O)C(C)C; d(β3hA) = C[C@@H](N)CC(=O)O; dIva = CC[C@@](C)(N)C(=O)O; dPip = O=C(O)[C@H]1CCCCN1; NMeA = CN[C@@H](C)C(=O)O; NMeAib = CNC(C)(C)C(=O)O; Piperidide = C1CCN(*)CC1; Pyrrolidide = C1CCN(*)C1; Ac5c = NC1(C(=O)O)CCCC1; Aze = O=C(O)[C@@H]1CCN1; Sar = CNCC(=O)O
Numbers only, as −log10 of the molar value.

Take a look at these entries with their results.
Reported pIC50 for C=CC[C@]1(C)NC(=O)[C@@H]2CCCN2C(=O)[C@H](CCc2ccc(C(F)(F)F)c(Cl)c2)NC(=O)CN(C)C(=O)[C@H](CC2CCCCC2)N(C)C(=O)CN(C)C(=O)CN(C)C(=O)[C@H]([C@@H](C)CC)NC(=O)[C@H](CC(C)C)N(C)C(=O)C[C@@H](C)NC(=O)[C@H](C(C)C)N(C)C1=O [Compound 242] (cyclo(I[Sar][Sar][NMeCha][Sar][hPhe(3-Cl-4-CF3)]P[X2][NMeV][d(β3hA)][NMeL])) was 7.57

Input CCCN1C(=O)C[C@@H](C(=O)N2CCCCC2)N(C)C(=O)[C@H](C(C)C)N(C)C(=O)C2(CCCC2)NC(=O)[C@@H]2CCCN2C(=O)[C@H](CCc2ccc(C(F)(F)F)c(Cl)c2)NC(=O)CN(C)C(=O)[C@H](CC2CCCCC2)N(C)C(=O)CN(C)C(=O)CN(C)C(=O)[C@H]([C@@H](C)CC)NC(=O)[C@@H]1C [Compound 131] ([NPrAla]I[Sar][Sar][NMeCha][Sar][hPhe(3-Cl-4-CF3)]P[Ac5c][NMeV][NMeD]-Piperidide; lactam N-11) . Output pIC50: 8.48

Consider the following items and state reported pIC50 for each.
1. CC[C@H](C)[C@@H]1NC(=O)[C@H](CC(C)C)N(C)C(=O)C[C@@H](C(=O)N2CCCCC2)N(C)C(=O)[C@H](C(C)C)N(C)C(=O)C2(CCCC2)NC(=O)[C@@H]2CCCN2C(=O)[C@H](CCc2ccc(C(F)(F)F)c(Cl)c2)NC(=O)CN(C)C(=O)[C@H](Cc2ccccc2Cl)N(C)C(=O)CN(C)C(=O)CN(C)C1=O [Compound 1636] ([NMeL]I[Sar][Sar][NMePhe(2-Cl)][Sar][hPhe(3-Cl-4-CF3)]P[Ac5c][NMeV][NMeD]-Piperidide; lactam N-11)
2. CC[C@H](C)[C@@H]1NC(=O)[C@H](C)N(C)C(=O)C[C@@H](C(=O)N(C)C)N(C)C(=O)[C@H]([C@@H](C)CC)N(C)C(=O)C2(CCCC2)NC(=O)[C@H](Cc2ccc(OC)cc2)N(C)C(=O)[C@H](CCc2ccc(C(F)(F)F)c(Cl)c2)NC(=O)CN(C)C(=O)[C@H](Cc2ccc(C)cc2)N(C)C(=O)[C@@H]2CCN2C(=O)[C@H](C)N(C)C1=O [Compound 1903] ([NMeA]I[NMeA][Aze][NMePhe(4-Me)][Sar][hPhe(3-Cl-4-CF3)][NMeY](Me)[Ac5c][NMeI][NMeD]-NMe2; lactam N-11)
3. CC[C@H](C)[C@@H]1NC(=O)[C@H](C)N(C)C(=O)C[C@@H](C)N(C)C(=O)[C@H](CC(C)C)N(C)C(=O)C(C)(C)N(C)C(=O)[C@@H]2CCCN2C(=O)[C@H](CCc2ccc(C(F)(F)F)c(Cl)c2)NC(=O)CN(C)C(=O)[C@H](CC2CCCCC2)N(C)C(=O)[C@@H]2CCN2C(=O)[C@H](C)N(C)C1=O [Compound 2160] (cyclo([Aze][NMeCha][Sar][hPhe(3-Cl-4-CF3)]P[NMeAib][NMeL][NMedβ3hAla][NMeA]I[NMeA]))

7.96
8.40
8.42

Please state, for each entry, its recorded pIC50.
1. CC[C@H](C)[C@@H]1NC(=O)[C@H](C)N(C)C(=O)C[C@@H](C)NC(=O)[C@H](C(C)C)N(C)C(=O)C(C)(C)N(C)C(=O)[C@@H]2CCCN2C(=O)[C@H](CCc2ccc(C(F)(F)F)c(Cl)c2)NC(=O)CN(C)C(=O)[C@H](CC2CCCCC2)N(C)C(=O)CN(C)C(=O)CN(C)C1=O [Compound 93] (cyclo(I[Sar][Sar][NMeCha][Sar][hPhe(3-Cl-4-CF3)]P[NMeAib][NMeV][d(β3hA)][NMeA]))
2. CC[C@H](C)[C@@H]1NC(=O)[C@H](CC(C)C)N(C)C(=O)C[C@@H](C)N(C)C(=O)[C@H](C(C)C)N(C)C(=O)[C@@](C)(CC)NC(=O)[C@@H]2CCCN2C(=O)[C@H](CCc2ccc(C(F)(F)F)c(Cl)c2)NC(=O)CN(C)C(=O)[C@H](CC2CCCCC2)N(C)C(=O)CN(C)C(=O)CN(C)C1=O [Compound 223] (cyclo(I[Sar][Sar][NMeCha][Sar][hPhe(3-Cl-4-CF3)]P[dIva][NMeV][NMedβ3hAla][NMeL]))
3. CC[C@H](C)[C@@H]1NC(=O)[C@H](CCC(C)C)N(C)C(=O)C[C@@H](C(=O)N2CCCC2)N(C)C(=O)[C@H]([C@@H](C)CC)N(C)C(=O)C2(CCCC2)NC(=O)[C@@H]2CCCN2C(=O)[C@H](CCc2ccc(C(F)(F)F)c(Cl)c2)NC(=O)CN(C)C(=O)[C@H](Cc2ccc(C(F)(F)F)cc2)N(C)C(=O)[C@@H]2CCN2C(=O)[C@H](C)N(C)C1=O [Compound 1289] ([NMehLeu]I[NMeA][Aze][NMePhe(4-CF3)][Sar][hPhe(3-Cl-4-CF3)]P[Ac5c][NMeI][NMeD]-Pyrrolidide; lactam N-11)
4. CC[C@H](C)[C@@H]1NC(=O)[C@H](C)N(C)C(=O)C[C@@H](C(=O)N2CCCCC2)N(C)C(=O)[C@H](C(C)C)N(C)C(=O)C2(CCCC2)NC(=O)[C@@H]2CCCN2C(=O)[C@H](CCc2ccc(C(F)(F)F)c(Cl)c2)NC(=O)[C@H]2CCCCN2C(=O)[C@H](CC2CCCCC2)N(C)C(=O)[C@@H]2CCN2C(=O)CN(C)C1=O [Compound 553] ([NMeA]I[Sar][Aze][NMeCha][dPip][hPhe(3-Cl-4-CF3)]P[Ac5c][NMeV][NMeD]-Piperidide; lactam N-11)

1: 8.16; 2: 7.74; 3: 9.17; 4: 7.57

----------
I'd be grateful if you could share measured IC50 for these entries.
Target: Kras and SOS1 (biotin-tagged human Kras loaded with GDP, His-tagged human SOS1) (Homo sapiens, UniProt P01116, G12D)
Construct: made in house; host or cells: E. coli (stated for Kras only)
Test: Protein-protein interaction inhibition between Kras and SOS1 (KrasGl2D-SOS PPI) using AlphaScreen
Type: binding
Conditions: AlphaScreen; biotin-tagged human Kras loaded with GDP, His-tagged human SOS1; read-out: KRAS G12D-SOS PPI IC50
Positions of bridges follow the written chain, without caps; N, C: chain ends. Non-standard residues stand in square brackets, D forms with d. Residues, ends and D or L forms follow the SMILES beside them. *: point of attachment. hPhe(3-Cl-4-CF3) = N[C@@H](CCc1ccc(C(F)(F)F)c(Cl)c1)C(=O)O; NMePhe(4-Me) = CN[C@@H](Cc1ccc(C)cc1)C(=O)O; NMeGly(cPent) = CN[C@H](C(=O)O)C1CCCC1; NMeChg = CN[C@H](C(=O)O)C1CCCCC1; NMeD = CN[C@@H](CC(=O)O)C(=O)O; NMeL = CN[C@@H](CC(C)C)C(=O)O; d(β3hA) = C[C@@H](N)CC(=O)O; NMeAbu = CC[C@H](NC)C(=O)O; Morpholide = C1CN(*)CCO1; NMeA = CN[C@@H](C)C(=O)O; Ac5c = NC1(C(=O)O)CCCC1; Aze = O=C(O)[C@@H]1CCN1; Aib = CC(C)(N)C(=O)O; Sar = CNCC(=O)O

Measured IC50, CC[C@H](C)[C@@H]1NC(=O)[C@H](CC(C)C)N(C)C(=O)C[C@@H](C)NC(=O)[C@H](C2CCCC2)N(C)C(=O)C(C)(C)NC(=O)[C@@H]2CCCN2C(=O)[C@H](CCc2ccc(C(F)(F)F)c(Cl)c2)NC(=O)CN(C)C(=O)[C@H](Cc2ccc(C)cc2)N(C)C(=O)[C@@H]2CCN2C(=O)[C@H](C)N(C)C1=O [Compound 354] (cyclo([Aib][NMeGly(cPent)][d(β3hA)][NMeL]I[NMeA][Aze][NMePhe(4-Me)][Sar][hPhe(3-Cl-4-CF3)]P)) : 1.6 nM

Further cases:
Lookup result for CC[C@H](C)[C@@H]1NC(=O)[C@H](CC)N(C)C(=O)C[C@@H](C(=O)N2CCOCC2)N(C)C(=O)[C@H](C2CCCCC2)N(C)C(=O)C2(CCCC2)NC(=O)[C@@H]2CCCN2C(=O)[C@H](CCc2ccc(C(F)(F)F)c(Cl)c2)NC(=O)CN(C)C(=O)[C@H](Cc2ccc(C)cc2)N(C)C(=O)CN(C)C(=O)CN(C)C1=O [Compound 1904] ([NMeAbu]I[Sar][Sar][NMePhe(4-Me)][Sar][hPhe(3-Cl-4-CF3)]P[Ac5c][NMeChg][NMeD]-Morpholide; lactam N-11) ; measured IC50: 0.57 nM
